Recorded GI50 values for a group of compounds are listed next.
test system: HCT-15 colon; experiment: NCI tumour cell line growth inhibition, 48 h

Worked examples, 3 compounds total:
substance_smiles	result
COc1ccc2nc3ccccc3c(NCc3ccccc3)c2c1	1830 nM
CC(=O)/C=C/c1ccc(N(CCO)Cc2ccc(C(C)(C)C)cc2)cc1	27800 nM
Cn1cc(-c2nc(-c3cn(C)c4ncccc34)cs2)c2ccccc21	1490 nM

Request the reported GI50 associated with C1=C\CCCCN2CC[C@H]3[C@H](CCCC/C=C\CCCN4C[C@@H](CCCCC/1)C[C@@H]3C4)C2
2220 nM

Request: COc1ccc2[nH]c3c(O)c(-c4c(C)cc5c([nH]c6ccc(OC)cc65)c4O)c(C)cc3c2c1
4200 nM

* * *

tested on: SF-268 CNS; experiment: NCI tumour cell line growth inhibition, 48 h
endpoint: GI50

Some compounds with recorded GI50:
compound	result
Nc1no[n+]([O-])c1-c1nnc2c(n1)-c1ccccc1C2=O	4.4 µM
COc1ccc(-c2nnc(Nc3nc(O)c(C4=c5cc(Br)ccc5=NC4=O)s3)o2)cc1	47.5 µM
CCC(C(=O)[C@@H](C)[C@@H](O)[C@H](C)[C@@H]1O[C@@H]([C@@H](CC)C(=O)ONC(=O)c2ccccc2)CC[C@@H]1C)[C@H]1O[C@]2(C=CC(=O)[C@]3(CC[C@@](C)([C@H]4CC[C@](O)(CC)[C@H](C)O4)O3)O2)[C@H](C)C[C@@H]1C (stereo partly drawn)	0.977 µM

Which GI50 reading was recorded for the compound CCC(=C(c1ccc(OCCN2CCCC2)cc1)c1ccc(OCCN2CCCC2)cc1)c1ccc(Cl)cc1 ?
0.612 µM

Can you check Cc1nn(-c2ccccc2)c2nc(C)n(-c3ccc(Br)cc3)c(=O)c12 next?
2.33 µM

Follow-up entry: COc1cc(NCCC2CCCCN2)c2ncccc2c1OC (stereo not drawn)
14.2 µM

Try this compound too: O=C(c1ccc(Nc2nccc(NCCCCNc3ccnc4cc(Cl)ccc34)n2)cc1)N1CCCCC1
2.36 µM

Again, but for O=C(CC1Sc2ccccc2NC1=O)NNc1ccc(F)cc1 (stereo not drawn)
81 µM

* * *

system: MCF7 breast; assay: NCI tumour cell line growth inhibition, 48 h
endpoint: TGI (µM)
Please give a number only; it is taken to be in µM.

Recorded TGI of CCN(CC)CCCC(C)Nc1ccnc(/C=C/c2ccc(Cl)cc2)c1 (stereo not given) , please.
4.84

Quick one: Cc1cc(OCc2nn(CN3CCN(C)CC3)c(=S)n2/N=C/c2ccc(F)cc2)ccc1Cl
34.4

Next entry: Nc1no[n+]([O-])c1-c1nnc2c(n1)-c1ccccc1C2=O
3.94

Could you do the same for CC(=O)/C=C/c1ccc(N(CCO)Cc2ccc(C(C)(C)C)cc2)cc1 , please?
118

* * *

tested on: SR leukemia; test: NCI tumour cell line growth inhibition, 48 h
endpoint: TGI

molecule	TGI
Nn1c(CCCCCCCCc2n[nH]c(=S)n2N)n[nH]c1=S	> 100 µM

For SR leukemia, provide TGI of Cc1cn(C2CC(O)C(COC(N)=O)O2)c(=O)[nH]c1=O (stereo unspecified) please.
> 100 µM

Let us now turn to CCOC(=O)c1ccn2c(c1)c(C#N)c1nc3ccccc3nc12
> 100 µM

Here is the next molecule: C=C1C(C(=O)O)C1C(=O)O (stereo unspecified)
> 100 µM

Same thing, different molecule: COC1C(=O)N(SC)C1c1ccccc1Cl (stereo unspecified)
42.4 µM

And for COc1ccc2c(c1)C(=O)c1c-2n(CCCCl)c(=O)c2cc(N)ccc12 ?
> 100 µM
